B1: library; numbered along this chain (parent)
chain: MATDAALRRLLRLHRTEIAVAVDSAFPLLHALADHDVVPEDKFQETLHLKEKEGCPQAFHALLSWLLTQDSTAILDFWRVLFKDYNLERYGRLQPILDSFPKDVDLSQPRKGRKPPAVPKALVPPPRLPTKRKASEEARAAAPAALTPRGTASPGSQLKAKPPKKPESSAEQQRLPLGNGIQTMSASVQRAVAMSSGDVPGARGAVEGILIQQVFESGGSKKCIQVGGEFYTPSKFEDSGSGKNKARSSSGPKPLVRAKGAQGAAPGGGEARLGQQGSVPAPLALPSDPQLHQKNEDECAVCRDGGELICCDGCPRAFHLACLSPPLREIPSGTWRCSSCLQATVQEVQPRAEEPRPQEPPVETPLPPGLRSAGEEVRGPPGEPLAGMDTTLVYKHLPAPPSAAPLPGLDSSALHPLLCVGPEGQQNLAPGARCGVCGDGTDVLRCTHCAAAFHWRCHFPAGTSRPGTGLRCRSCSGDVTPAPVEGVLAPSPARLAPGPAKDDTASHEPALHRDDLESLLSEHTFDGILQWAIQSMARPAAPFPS

variants of: B1; assay: AIRE transcriptional activation functional score (insulin promoter-GFP; nonsense median 0, synonymous median 1) (normalised score); higher = higher AIRE activity (more reporter activation); settings: with insulin promoter-GFP reporter in HEK293
Classify by measured AIRE transcriptional activation functional score: YES if it is equal to or exceeds 0.8, NO if it is smaller.

Exercise: Hi, just wondering whether "K102W" shows AIRE transcriptional activation functional score of 0.8 or higher.
Key: YES

Exercise: Hi, just wondering whether "D410V" shows AIRE transcriptional activation functional score of 0.8 or higher.
Key: YES

Exercise: Hi, just wondering whether "Q293W" shows AIRE transcriptional activation functional score of 0.8 or higher.
Key: YES

Exercise: Hi, just wondering whether "A21E" shows AIRE transcriptional activation functional score of 0.8 or higher.
Key: NO

Exercise: Hi, just wondering whether "T130V" shows AIRE transcriptional activation functional score of 0.8 or higher.
Key: NO

Exercise: Hi, just wondering whether "S402R" shows AIRE transcriptional activation functional score of 0.8 or higher.
Key: YES

Exercise: Hi, just wondering whether "G251N" shows AIRE transcriptional activation functional score of 0.8 or higher.
Key: NO

Exercise: Hi, just wondering whether "I309R" shows AIRE transcriptional activation functional score of 0.8 or higher.
Key: YES

Exercise: Hi, just wondering whether "G269P" shows AIRE transcriptional activation functional score of 0.8 or higher.
Key: YES

Exercise: Hi, just wondering whether "I18A" shows AIRE transcriptional activation functional score of 0.8 or higher.
Key: NO

Exercise: Hi, just wondering whether "K42G" shows AIRE transcriptional activation functional score of 0.8 or higher.
Key: NO

Exercise: Hi, just wondering whether "R12Y" shows AIRE transcriptional activation functional score of 0.8 or higher.
Key: NO

Exercise: Hi, just wondering whether "P280E" shows AIRE transcriptional activation functional score of 0.8 or higher.
Key: YES

Exercise: Hi, just wondering whether "P163A" shows AIRE transcriptional activation functional score of 0.8 or higher.
Key: NO

Exercise: Hi, just wondering whether "R92Q" shows AIRE transcriptional activation functional score of 0.8 or higher.
Key: NO

Exercise: Hi, just wondering whether "K133M" shows AIRE transcriptional activation functional score of 0.8 or higher.
Key: NO

Exercise: Hi, just wondering whether "R494K" shows AIRE transcriptional activation functional score of 0.8 or higher.
Key: NO

Exercise: Hi, just wondering whether "I74V" shows AIRE transcriptional activation functional score of 0.8 or higher.
Key: NO

Exercise: Hi, just wondering whether "A352D" shows AIRE transcriptional activation functional score of 0.8 or higher.
Key: YES

Exercise: Hi, just wondering whether "A496M" shows AIRE transcriptional activation functional score of 0.8 or higher.
Key: YES

Exercise: Hi, just wondering whether "P490W" shows AIRE transcriptional activation functional score of 0.8 or higher.
Key: NO

Exercise: Hi, just wondering whether "K164F" shows AIRE transcriptional activation functional score of 0.8 or higher.
Key: YES

Exercise: Hi, just wondering whether "G486V" shows AIRE transcriptional activation functional score of 0.8 or higher.
Key: YES

Exercise: Hi, just wondering whether "G431W" shows AIRE transcriptional activation functional score of 0.8 or higher.
Key: YES

Exercise: Hi, just wondering whether "P355R" shows AIRE transcriptional activation functional score of 0.8 or higher.
Key: YES

Exercise: Hi, just wondering whether "G435Q" shows AIRE transcriptional activation functional score of 0.8 or higher.
Key: NO

Exercise: Hi, just wondering whether "E296C" shows AIRE transcriptional activation functional score of 0.8 or higher.
Key: NO

Exercise: Hi, just wondering whether "P483M" shows AIRE transcriptional activation functional score of 0.8 or higher.
Key: YES

Exercise: Hi, just wondering whether "Q213R" shows AIRE transcriptional activation functional score of 0.8 or higher.
Key: NO

Exercise: Hi, just wondering whether "L66V" shows AIRE transcriptional activation functional score of 0.8 or higher.
Key: NO

Exercise: Hi, just wondering whether "R465W" shows AIRE transcriptional activation functional score of 0.8 or higher.
Key: YES

Exercise: Hi, just wondering whether "K120P" shows AIRE transcriptional activation functional score of 0.8 or higher.
Key: YES

Exercise: Hi, just wondering whether "M388T" shows AIRE transcriptional activation functional score of 0.8 or higher.
Key: YES

Exercise: Hi, just wondering whether "A258D" shows AIRE transcriptional activation functional score of 0.8 or higher.
Key: NO

Exercise: Hi, just wondering whether "R247L" shows AIRE transcriptional activation functional score of 0.8 or higher.
Key: YES

Exercise: Hi, just wondering whether "Q182C" shows AIRE transcriptional activation functional score of 0.8 or higher.
Key: YES

Exercise: Hi, just wondering whether "C322M" shows AIRE transcriptional activation functional score of 0.8 or higher.
Key: YES

Exercise: Hi, just wondering whether "L414A" shows AIRE transcriptional activation functional score of 0.8 or higher.
Key: YES

Exercise: Hi, just wondering whether "G54W" shows AIRE transcriptional activation functional score of 0.8 or higher.
Key: NO

Exercise: Hi, just wondering whether "D389A" shows AIRE transcriptional activation functional score of 0.8 or higher.
Key: YES

Exercise: Hi, just wondering whether "L7T" shows AIRE transcriptional activation functional score of 0.8 or higher.
Key: YES

Exercise: Hi, just wondering whether "P430G" shows AIRE transcriptional activation functional score of 0.8 or higher.
Key: YES

Exercise: Hi, just wondering whether "L32H" shows AIRE transcriptional activation functional score of 0.8 or higher.
Key: NO

Exercise: Hi, just wondering whether "D312W" shows AIRE transcriptional activation functional score of 0.8 or higher.
Key: YES

Exercise: Hi, just wondering whether "S24V" shows AIRE transcriptional activation functional score of 0.8 or higher.
Key: NO
